# credit: the supplement of paper PMC6555819

- System: RARb homodimer (NR concentration 270 nM)
- test: PBM binding z-score (relative to random genomic background probes); higher = stronger binding; sequences stand for … in GC…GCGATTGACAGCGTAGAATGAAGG
test-readout: PBM binding z-score
The reply should be a number, written without any unit.

[
  {
    "construct-sequence": "CGTCTAAGTTCAACTAAGGTAACGTAAAGCACGC",
    "PBM binding z-score": 3.13
  },
  {
    "construct-sequence": "AGTCAAAGTTCATATAGGTAACGTAAGATATGCT",
    "PBM binding z-score": 3.55
  },
  {
    "construct-sequence": "CCTTACGGGTCACTGGCAGGTTATAGCATTTGGA",
    "PBM binding z-score": 3.16
  },
  {
    "construct-sequence": "TGTCAAAGTTCAAAGGTAACGAAAGTATCCACAC",
    "PBM binding z-score": 3.89
  },
  {
    "construct-sequence": "ATATGTAGGTTAAGAGTCATTCAGGTTGGTTCGC",
    "PBM binding z-score": 1.26
  },
  {
    "construct-sequence": "AGAATGAGGTTCAGATCAGGGAAACAGAATACAT",
    "PBM binding z-score": 0.405
  },
  {
    "construct-sequence": "TAGCCTAGGTCATTCAGGGGCCAGTGTAGAAAGC",
    "PBM binding z-score": 3.6
  },
  {
    "construct-sequence": "CGTCCAAGGTCAGAAGGTCAGTGAAAGCGACGTG",
    "PBM binding z-score": 5.32
  },
  {
    "construct-sequence": "TCTCGGAGGACACAAAAGGTCAGAGCTCGACATC",
    "PBM binding z-score": 4.4
  },
  {
    "construct-sequence": "CTCGAAAGGTAGGTTGAGGTGAGTATACGGATAA",
    "PBM binding z-score": 0.59
  }
]

Q. Give PBM binding z-score (RARb homodimer (NR concentration 270 nM)) of the following sequence: GCAGAAAGGTGAAACGCAGGTAACTCAGGGTGGC
A. 1.55

Q. Quick one: CCTGCTAGGTCAATGGTCAGCTAGAGCAGCTCGC
A. 2.68

---

A collection of sequences and their measured PBM binding z-score
- Tested on: PPARg homodimer (NR concentration 180 nM)
- test: PBM binding z-score (relative to random genomic background probes); higher = stronger binding; sequences stand for … in GC…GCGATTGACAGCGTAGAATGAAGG
The reply should be a number, written without any unit.

[
  {
    "construct-sequence": "CCGACTGGGGCATAAGGTTACCAAAAGCCAGCCC",
    "PBM binding z-score": 0.779
  },
  {
    "construct-sequence": "CGTCAAAGTTCAACTAAGGGAACGTAAAGCACGC",
    "PBM binding z-score": 2.6
  },
  {
    "construct-sequence": "GGAACGAGGGCAAGTTGATATCAGAGTTTGATGG",
    "PBM binding z-score": 0.61
  },
  {
    "construct-sequence": "CGTCCAAGGTCCAGGTCAGTGAAAGAGACTCGAA",
    "PBM binding z-score": 0.811
  },
  {
    "construct-sequence": "CCGACTGGGGCAGAAAGGTGACCATACCATCCGG",
    "PBM binding z-score": 0.473
  }
]

We next turn to a different sequence, shown below.
Q. Could you tell me which PBM binding z-score is on file for TAGCCTAGGTCAGATCCGGCCAGTATACGCTATA ?
A. 0.289
